Values from the supplement of paper PMC10127200

System: A549
Test: Euclidean distance of Cell Painting phenotypic profile (signed KS, 77 features) to DMSO centroid (dimensionless distance); 5 or 10 uM (library dependent); higher = stronger phenotypic change vs DMSO (phenoactivity)
Details: 48 h
Test readout: Euclidean distance

1) N=C(N)N/N=C/c1c(Cl)cccc1Cl [Guanabenz Acetate]
1.29
2) C[C@]12CC[C@H](O)CC1=CC[C@@H]1[C@@H]2CC[C@]2(C)C(n3cnc4ccccc43)=CC[C@@H]12
1.11
3) CN(CCN1CCC(OC(=O)Nc2ccccc2-c2ccccc2)CC1)C(=O)c1ccc(CN2CCC(C(N)=O)CC2)cc1
1.27
4) C=CC(=O)Nc1cccc(Oc2nc(Nc3ccc(N4CCN(C)CC4)cc3OC)ncc2Cl)c1
1.34
5) CN(C)C(=O)Nc1cccc(-c2ccc(N(C)C)cc2)c1
1.47
6) CC(C)(O)CC[C@@H](O)[C@](C)(O)[C@H]1CC[C@@]2(O)C3=CC(=O)[C@@H]4C[C@@H](O)[C@@H](O)C[C@]4(C)[C@H]3CC[C@]12C [20-Hydroxyecdysone]
1.05
7) O=C(O)CCCc1cc2cc(Cl)ccc2n1S(=O)(=O)c1ccc2ncsc2c1
0.787
8) CNS(=O)(=O)C[C@H]1CC[C@H](N(C)c2[nH]cnc3nccc2-3)CC1
0.94
